- System: NCI-H522
- PROTOCOL TEXT: NCI tumour cell line growth inhibition, 48 h
Calls of active or inactive are those of the source. No stated cut-off is given here; in the data, active = GI50 up to about 1.1 µM and inactive = higher.
Would you kindly list GI50 for each of these compounds?

COMPOUND	SYSTEM TESTED	TEST RESULT
COC(CNC(=O)C(C)NC(=O)CCc1ccccc1)OC (stereo not given)	NCI-H522	> 100 µM (inactive)
CC[C@H]1C=CCC[C@@]2(C[C@@H]3CC[C@@H]4[C@H](C(=O)OCCCCCCCCCCCCCCCC(=O)N(CCCN)C[C@@H](O)CCN)[C@]5(CCC[C@@H](C)O5)NC(=[N+]34)N2)O1	NCI-H522	0.174 µM (active)
Cn1nc2ccc([N+](=O)[O-])cc2[n+]1[O-]	NCI-H522	> 100 µM (inactive)

For each entry beneath this line, provide reported GI50.
1. COCN1C(=O)[C@@H]2CCCN2C(=O)c2cc(N)ccc21
2. CCC(=O)Nc1nc2c(ncn2C2OC(COC(=O)CC)C(OC(=O)CC)C2OC(=O)CC)c(=O)[nH]1 (stereo not given)
3. O=C(c1ccccc1)c1cc[n+](C2=C([N-]S(=O)(=O)c3ccccc3)C(=O)c3ccccc3C2=O)cc1

Result block:
["> 100 µM (inactive)", "> 100 µM (inactive)", "4.74 µM (inactive)"]

Respectfully, I request GI50 for each entry included below.
1. CCOC(=O)/C=C(\C(=O)OCC)n1ccc(=O)n(Cc2cn(COCCOC(C)=O)nn2)c1=O
2. COC(=O)C(=O)C(C#N)c1ccc(CC#N)cc1 (stereo not given)
3. Cc1nc2ccccc2c(=O)n1-c1ccccc1I
4. C=CCCCC12CCCc3cccc(c31)NC2=O (stereo not given)

Result block:
1: 2.71 µM (inactive); 2: > 100 µM (inactive); 3: > 100 µM (inactive); 4: 16.9 µM (inactive)
